// provenance: PubChem BioAssay (NCI)

# System: MCF7 breast
# measurement-notes: NCI-60 one-dose screen, 48 h (100 = growth as untreated, 0 = no growth, -100 = all killed)
# reported-conditions: 10 µM unless noted
About 83,000 compounds went through this panel and 20% of them were active in at least one assay; those are over-represented in the sample as a whole.
experimental-endpoint: growth (%)

{"structure-smiles": "Clc1ccc2c(NCCNc3nc(N4CCOCC4)nc4ccccc34)ccnc2c1", "system-tested": "MCF7 breast", "endpoint-value": 38.8}
{"structure-smiles": "COc1cc(-c2ccc3c(c2)NC(=O)/C3=C\\c2ccc[nH]2)ccc1O", "system-tested": "MCF7 breast", "endpoint-value": 6.69}
{"structure-smiles": "O=C1NC(=Nc2ccc(O)cc2)S/C1=C\\c1cccc(Cl)c1", "system-tested": "MCF7 breast", "endpoint-value": 18.6}
{"structure-smiles": "CCOC(=O)c1sc(Nc2ccc(Cl)cc2)nc1C", "system-tested": "MCF7 breast", "endpoint-value": 13}
{"structure-smiles": "COc1ccc(S(=O)(=O)N2CC3(COC3)C2)cc1NC(=O)c1[nH]c(C)c2c1CCCCC2=O", "system-tested": "MCF7 breast", "endpoint-value": 21.9}
{"structure-smiles": "CC(=O)O[C@H]1CC[C@]2(C)[C@H]3CC=C4[C@@H]5CC(C)(C)CC[C@]5(C(=O)NCCNCCN)CC[C@@]4(C)[C@]3(C)CC[C@H]2C1(C)C", "system-tested": "MCF7 breast", "endpoint-value": -90.7}
{"structure-smiles": "Cc1ncc(C(=O)Nc2ccc(CN3CCN(C)CC3)c(C(F)(F)F)c2)cc1C#Cc1cnc2cccnn12", "system-tested": "MCF7 breast", "endpoint-value": 2.92}
{"structure-smiles": "O=C(Cn1cccc(Nc2ccccc2)c1=O)Nc1ccccc1", "system-tested": "MCF7 breast", "endpoint-value": 96.1}
{"structure-smiles": "CCN(CC)c1ccc(/C=N\\NC(=O)/C=C/C=C/c2ccc3c(c2)OCO3)c(O)c1", "system-tested": "MCF7 breast", "endpoint-value": 19.5}
